target: carbonic anhydrase II (Homo sapiens, UniProt P00918); experiment: Enzyme inhibition, KI versus carbonic anhydrase II (enzymatic micromethod); format: biochemical; conditions: 0°, unit inferred
measured-property: pKi
Reminder that pKi means the negative base-10 logarithm of the concentration expressed in mol/L.

Data request: Tell me its pKi given CCOC(=O)CCCCC(=O)Nc1nnc(S(N)(=O)=O)s1 [Example 7] as the entry.
Data returned: 7.22

---

assay: Solubility in pH=7.4 phosphate buffer (saturated solutions); type: physicochemical; settings: aqueous buffer
measured-property: solubility (µM)
Respond with the bare value in µM.

Data request: Tell me its solubility given NS(=O)(=O)c1nnc(NC(=O)CCCCC(=O)O)s1 [Example 8] as the entry.
Data returned: 500

Data request: Tell me its solubility given CCOC(=O)CCC(=O)Nc1nnc(S(N)(=O)=O)s1 [Example 6, Ethylsuccinylazolamide] as the entry.
Data returned: 5800

Data request: Tell me its solubility given CCOC(=O)CCCCC(=O)Nc1nnc(S(N)(=O)=O)s1 [Example 7] as the entry.
Data returned: 200

Data request: Tell me its solubility given NS(=O)(=O)c1nnc(N2C(=O)C=CC2=O)s1 [Example 3, Maleimidiazolamide] as the entry.
Data returned: 1000

Data request: Tell me its solubility given NS(=O)(=O)c1nnc(N2C(=O)CCC2=O)s1 [Example 2, Succinylimidazolamide] as the entry.
Data returned: 10000
